Measurement description: clinical
Condition label: female, human, in vivo, Tmax post-dose, serum dihydrotestosterone, participants with measurable maximal values
Property label: Tmax

Give reported Tmax value for C[C@]12CCC(=O)C[C@@H]1CC[C@@H]1[C@@H]2CC[C@]2(C)[C@@H](O)CC[C@@H]12 [dihydrotestosterone, 5 alpha dihydrotestosterone]
48 to 72 h

###

Measurement description: clinical
Condition label: female, human, in vivo
Property label: concentration at 12 weeks

Answer with the recorded concentration at 12 weeks of CC(C)(C#N)c1cc(Cn2cncn2)cc(C(C)(C)C#N)c1 only.
< 0.1 ng/mL

###

Measurement description: clinical
Condition label: female, human, in vivo, sc, t1/2, arithmetic mean (terminal half-life)
Property label: half-life (days)
Write the value in days as a bare number.

Tell me half-life reported for CC(C)(C#N)c1cc(Cn2cncn2)cc(C(C)(C)C#N)c1 [Anastrozole]
14
